Task for the reader: assign each of the following substances its reported inhibition rate of HUVEC migration.
System: Human Umbilical Vein Endothelial Cells (HUVEC)
Assay: Transwell migration of HUVEC
Format: cell-based
Conditions: 100 μg/mL, 24 h
Marks after values point to notes of the source that are not given here. Where no end group is shown, it is not given here.

Recorded inhibition rate of HUVEC migration, per entry:
mPEG-ALD20k-Arg-Gly-Ala-Asp-Arg-Ala-Gly-Gly-Gly-Gly-Arg-Gly-Asp ({mPEG‑ALD 20 kDa}-RGADRAGGGGRGD) [mPEG-ALD20k-HM-1]    45.13%*
mPEG2-NHS40k-Arg-Gly-Ala-Asp-Arg-Ala-Gly-Gly-Gly-Gly-Arg-Gly-Asp ({mPEG2‑NHS 40 kDa}-RGADRAGGGGRGD) [mPEG2-NHS40k-HM-1]    50.13%
mPEG-bALD40k-Arg-Gly-Ala-Asp-Arg-Ala-Gly-Gly-Gly-Gly-Arg-Gly-Asp ({mPEG‑bALD 40 kDa}-RGADRAGGGGRGD) [mPEG-bALD40k-HM-1]    52.11%

# batch size: 3; output inhibition rate of HUVEC migration per entry
1. mPEG-SC20k-Arg-Gly-Ala-Asp-Arg-Ala-Gly-Gly-Gly-Gly-Arg-Gly-Asp ({mPEG‑SC 20 kDa}-RGADRAGGGGRGD) [mPEG-SC20k-HM-1]
2. mPEG-bALD10k-Arg-Gly-Ala-Asp-Arg-Ala-Gly-Gly-Gly-Gly-Arg-Gly-Asp ({mPEG‑bALD 10 kDa}-RGADRAGGGGRGD) [mPEG-bALD10k-HM-1]
3. mPEG-SC40k-Arg-Gly-Ala-Asp-Arg-Ala-Gly-Gly-Gly-Gly-Arg-Gly-Asp ({mPEG‑SC 40 kDa}-RGADRAGGGGRGD) [mPEG-SC40k-HM-1]

Reply |
47.23%*
47.94%*
52.69%

# batch size: 2; output inhibition rate of HUVEC migration per entry
1. mPEG-ALD40k-Arg-Gly-Ala-Asp-Arg-Ala-Gly-Gly-Gly-Gly-Arg-Gly-Asp ({mPEG‑ALD 40 kDa}-RGADRAGGGGRGD) [mPEG-ALD40k-HM-1]
2. mPEG2-NHS20k-Arg-Gly-Ala-Asp-Arg-Ala-Gly-Gly-Gly-Gly-Arg-Gly-Asp ({mPEG2‑NHS 20 kDa}-RGADRAGGGGRGD) [mPEG2-NHS20k-HM-1]

Reply |
50.39%
45.73%*

---

Conditions: in vivo
Where no end group is shown, it is not given here.
Decision: AUC0-∞ compared against 5000 mg/L/h; not below it gives YES, below it gives NO.

mPEG-SC10k-Arg-Gly-Ala-Asp-Arg-Ala-Gly-Gly-Gly-Gly-Arg-Gly-Asp ({mPEG‑SC 10 kDa}-RGADRAGGGGRGD) [mPEG-SC10k-HM-1]    NO
mPEG-ALD40k-Arg-Gly-Ala-Asp-Arg-Ala-Gly-Gly-Gly-Gly-Arg-Gly-Asp ({mPEG‑ALD 40 kDa}-RGADRAGGGGRGD) [mPEG-ALD40k-HM-1]    YES
mPEG-bALD20k-Arg-Gly-Ala-Asp-Arg-Ala-Gly-Gly-Gly-Gly-Arg-Gly-Asp ({mPEG‑bALD 20 kDa}-RGADRAGGGGRGD) [mPEG-bALD20k-HM-1]    YES
mPEG-SC40k-Arg-Gly-Ala-Asp-Arg-Ala-Gly-Gly-Gly-Gly-Arg-Gly-Asp ({mPEG‑SC 40 kDa}-RGADRAGGGGRGD) [mPEG-SC40k-HM-1]    NO
mPEG-bALD5k-Arg-Gly-Ala-Asp-Arg-Ala-Gly-Gly-Gly-Gly-Arg-Gly-Asp ({mPEG‑bALD 5 kDa}-RGADRAGGGGRGD) [mPEG-bALD5k-HM-1]    NO

Consider now this further substance.
Ask | Dear colleague, could you confirm whether mPEG-SC5k-Arg-Gly-Ala-Asp-Arg-Ala-Gly-Gly-Gly-Gly-Arg-Gly-Asp ({mPEG‑SC 5 kDa}-RGADRAGGGGRGD) [mPEG-SC5k-HM-1] has AUC0-∞ at or above 5000 mg/L/h?
Reply | NO

---

Task for the reader: assign each of the following substances its reported Left and right paw swelling.
System: adjuvant arthritis (AA) SD rats
Experiment: Adjuvant arthritis (AA) rat model
Assay type: in vivo
Conditions: 10 mg/kg subcutaneous once every three days; AA SD rats
Where no end group is shown, it is not given here.

Recorded Left and right paw swelling, per entry:
mPEG2-NHS5k-Arg-Gly-Ala-Asp-Arg-Ala-Gly-Gly-Gly-Gly-Arg-Gly-Asp ({mPEG2‑NHS 5 kDa}-RGADRAGGGGRGD) [mPEG2-NHS5k-HM-1]    3.91 ± 0.73 mm
mPEG-ALD5k-Arg-Gly-Ala-Asp-Arg-Ala-Gly-Gly-Gly-Gly-Arg-Gly-Asp ({mPEG‑ALD 5 kDa}-RGADRAGGGGRGD) [mPEG-ALD5k-HM-1]    3.92 ± 0.67 mm
mPEG-SC5k-Arg-Gly-Ala-Asp-Arg-Ala-Gly-Gly-Gly-Gly-Arg-Gly-Asp ({mPEG‑SC 5 kDa}-RGADRAGGGGRGD) [mPEG-SC5k-HM-1]    3.96 ± 0.71 mm

Then there is this substance:
Tested on adjuvant arthritis (AA) SD rats: mPEG-bALD5k-Arg-Gly-Ala-Asp-Arg-Ala-Gly-Gly-Gly-Gly-Arg-Gly-Asp ({mPEG‑bALD 5 kDa}-RGADRAGGGGRGD) [mPEG-bALD5k-HM-1] . Observed Left and right paw swelling: 3.94 ± 0.65 mm

---

Task for the reader: assign each of the following substances its reported A570 nm-A630 nm.
Test system: human retinal vascular endothelial cells (HRCEC)
Experiment: MTT proliferation of human retinal vascular endothelial cells
Assay type: cell-based
Conditions: 40 μg/mL; HRCEC, 48 h, MTT
Where no end group is shown, it is not given here.
Answers are plain numbers.

Recorded A570 nm-A630 nm, per entry:
mPEG-SC10k-Arg-Gly-Ala-Asp-Arg-Ala-Gly-Gly-Gly-Gly-Arg-Gly-Asp ({mPEG‑SC 10 kDa}-RGADRAGGGGRGD) [mPEG-SC10k-HM-1]    0.7020
mPEG-bALD5k-Arg-Gly-Ala-Asp-Arg-Ala-Gly-Gly-Gly-Gly-Arg-Gly-Asp ({mPEG‑bALD 5 kDa}-RGADRAGGGGRGD) [mPEG-bALD5k-HM-1]    0.6594
mPEG2-NHS5k-Arg-Gly-Ala-Asp-Arg-Ala-Gly-Gly-Gly-Gly-Arg-Gly-Asp ({mPEG2‑NHS 5 kDa}-RGADRAGGGGRGD) [mPEG2-NHS5k-HM-1]    0.6523
mPEG-ALD10k-Arg-Gly-Ala-Asp-Arg-Ala-Gly-Gly-Gly-Gly-Arg-Gly-Asp ({mPEG‑ALD 10 kDa}-RGADRAGGGGRGD) [mPEG-ALD10k-HM-1]    0.6771
mPEG-SC5k-Arg-Gly-Ala-Asp-Arg-Ala-Gly-Gly-Gly-Gly-Arg-Gly-Asp ({mPEG‑SC 5 kDa}-RGADRAGGGGRGD) [mPEG-SC5k-HM-1]    0.6323
mPEG-ALD5k-Arg-Gly-Ala-Asp-Arg-Ala-Gly-Gly-Gly-Gly-Arg-Gly-Asp ({mPEG‑ALD 5 kDa}-RGADRAGGGGRGD) [mPEG-ALD5k-HM-1]    0.6301

# batch size: 2; output A570 nm-A630 nm per entry
1. mPEG2-NHS10k-Arg-Gly-Ala-Asp-Arg-Ala-Gly-Gly-Gly-Gly-Arg-Gly-Asp ({mPEG2‑NHS 10 kDa}-RGADRAGGGGRGD) [mPEG2-NHS10k-HM-1]
2. mPEG-bALD10k-Arg-Gly-Ala-Asp-Arg-Ala-Gly-Gly-Gly-Gly-Arg-Gly-Asp ({mPEG‑bALD 10 kDa}-RGADRAGGGGRGD) [mPEG-bALD10k-HM-1]

Reply |
1. 0.7160
2. 0.6931

---

Details: in vivo
Where no end group is shown, it is not given here.
Task for the reader: assign each of the following substances its reported CL.
One number for each entry, in mL/min/kg.

Recorded CL, per entry:
mPEG-ALD10k-Arg-Gly-Ala-Asp-Arg-Ala-Gly-Gly-Gly-Gly-Arg-Gly-Asp ({mPEG‑ALD 10 kDa}-RGADRAGGGGRGD) [mPEG-ALD10k-HM-1]    0.425
mPEG-ALD20k-Arg-Gly-Ala-Asp-Arg-Ala-Gly-Gly-Gly-Gly-Arg-Gly-Asp ({mPEG‑ALD 20 kDa}-RGADRAGGGGRGD) [mPEG-ALD20k-HM-1]    0.215
mPEG-SC20k-Arg-Gly-Ala-Asp-Arg-Ala-Gly-Gly-Gly-Gly-Arg-Gly-Asp ({mPEG‑SC 20 kDa}-RGADRAGGGGRGD) [mPEG-SC20k-HM-1]    0.225
mPEG-SC40k-Arg-Gly-Ala-Asp-Arg-Ala-Gly-Gly-Gly-Gly-Arg-Gly-Asp ({mPEG‑SC 40 kDa}-RGADRAGGGGRGD) [mPEG-SC40k-HM-1]    0.113
mPEG-ALD40k-Arg-Gly-Ala-Asp-Arg-Ala-Gly-Gly-Gly-Gly-Arg-Gly-Asp ({mPEG‑ALD 40 kDa}-RGADRAGGGGRGD) [mPEG-ALD40k-HM-1]    0.108
mPEG2-NHS5k-Arg-Gly-Ala-Asp-Arg-Ala-Gly-Gly-Gly-Gly-Arg-Gly-Asp ({mPEG2‑NHS 5 kDa}-RGADRAGGGGRGD) [mPEG2-NHS5k-HM-1]    0.878
mPEG-bALD40k-Arg-Gly-Ala-Asp-Arg-Ala-Gly-Gly-Gly-Gly-Arg-Gly-Asp ({mPEG‑bALD 40 kDa}-RGADRAGGGGRGD) [mPEG-bALD40k-HM-1]    0.11
mPEG-bALD10k-Arg-Gly-Ala-Asp-Arg-Ala-Gly-Gly-Gly-Gly-Arg-Gly-Asp ({mPEG‑bALD 10 kDa}-RGADRAGGGGRGD) [mPEG-bALD10k-HM-1]    0.417

Then there is this substance:
Sample mPEG-ALD5k-Arg-Gly-Ala-Asp-Arg-Ala-Gly-Gly-Gly-Gly-Arg-Gly-Asp ({mPEG‑ALD 5 kDa}-RGADRAGGGGRGD) [mPEG-ALD5k-HM-1] ; CL observed: 0.843

From: patent US10869931B2
